target: Full-length human MNK1 (Homo sapiens, UniProt Q9BUB5, T385D); test: MNK1 biochemical IC50 assay (Caliper mobility shift)
Sequence (Q9BUB5 1-424 isoform Q9BUB5-2 T344D): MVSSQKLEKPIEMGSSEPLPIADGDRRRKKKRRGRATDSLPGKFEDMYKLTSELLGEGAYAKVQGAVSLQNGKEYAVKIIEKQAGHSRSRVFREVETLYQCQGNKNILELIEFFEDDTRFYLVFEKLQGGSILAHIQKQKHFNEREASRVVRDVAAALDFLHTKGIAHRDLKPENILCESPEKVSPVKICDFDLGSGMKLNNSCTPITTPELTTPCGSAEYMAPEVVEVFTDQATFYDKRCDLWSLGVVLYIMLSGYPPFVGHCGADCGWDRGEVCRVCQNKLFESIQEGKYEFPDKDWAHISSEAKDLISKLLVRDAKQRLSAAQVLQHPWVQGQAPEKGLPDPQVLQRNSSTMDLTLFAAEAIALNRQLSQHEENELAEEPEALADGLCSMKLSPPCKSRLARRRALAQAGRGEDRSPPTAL
pIC50: −log10 of the molar value.
measured property: pIC50

Study these solved cases before continuing.
INSERT INTO assay_data (compound, measured_property, quantitative_readout) VALUES
  ('CC(C)Oc1cc(F)ccc1Nc1ncnc2ccn(CCO)c12 [Example 4]', 'pIC50', 5.70),
  ('Cn1ccc2ncnc(Nc3ccc4[nH]ncc4c3)c21 [Example 14]', 'pIC50', 6.60),
  ('CC(C)Oc1cc(C#N)ccc1Nc1ncnc2ccn(C)c12 [Example 7]', 'pIC50', 7.30),
  ('CO[C@@H]1CCCC[C@H]1Oc1cc(F)ccc1Nc1ncnc2ccn(C)c12 [Example 38]', 'pIC50', 5.70),
  ('CC(C)Oc1nc(Cl)ccc1Nc1ncnc2ccn(C)c12 [Example 6]', 'pIC50', 6.60);

[a] COCCn1ccc2ncnc(Nc3ccc(F)cc3OC(C)C)c21 [Example 5]
[b] CC(C)Oc1ncccc1Nc1ncnc2ccn(C)c12 [Example 29]
[c] CC(CF)Oc1cc(F)ccc1Nc1ncnc2ccn(C)c12 (racemic) [Example 26]
Enquiry: Rank ascending by pIC50. Give your ranking as a list of the labels in the requested order.
Return: a, b, c
(a: 5.50, b: 6.60, c: 7.10)

[1] Cn1ccc2ncnc(Nc3ccc(F)cc3OC3CCC3)c21 [Example 17]
[2] CO[C@H]1CCC[C@@H](Oc2cc(F)ccc2Nc2ncnc3ccn(C)c23)C1 [Example 20]
Enquiry: Recorded pIC50 values differ for 1 and 2 ; which one is higher? Pick one and reply with its label.
Return: 1
(1: 6.70, 2: 5.50)

[A] Cn1ccc2ncnc(Nc3ccc(F)cc3O[C@H]3CCOC3)c21 [Example 15]
[B] CC(C)Oc1c(F)cccc1Nc1ncnc2ccn(C)c12 [Example 33]
Enquiry: Recorded pIC50 values differ for A and B ; which one is higher? Pick one and reply with its label.
Return: B
(B: 7.00, A: 6.40)

[A] Cn1ccc2ncnc(Nc3ccc(F)cc3OC3CCOCC3)c21 [Example 13]
[B] Cn1ccc2ncnc(Nc3ccc(F)cc3O[C@H]3CCCC[C@@H]3O)c21 [Example 36]
[C] CO[C@H]1CCCC[C@@H]1Oc1cc(F)ccc1Nc1ncnc2ccn(C)c12 [Example 37]
[D] COc1ccc(Nc2ncnc3ccn(C)c23)c(OC(C)C)c1 [Example 10]
Enquiry: Rank ascending by pIC50. Give your ranking as a list of the labels in the requested order.
Return: C, D, B, A
(C: 4.80, D: 5.00, B: 6.10, A: 6.50)

---

target: Full-length human MNK2 (Homo sapiens, UniProt Q9HBH9, T379D); assay: MNK2 biochemical IC50 assay (Caliper mobility shift)
Sequence (Q9HBH9 whole entry T379D): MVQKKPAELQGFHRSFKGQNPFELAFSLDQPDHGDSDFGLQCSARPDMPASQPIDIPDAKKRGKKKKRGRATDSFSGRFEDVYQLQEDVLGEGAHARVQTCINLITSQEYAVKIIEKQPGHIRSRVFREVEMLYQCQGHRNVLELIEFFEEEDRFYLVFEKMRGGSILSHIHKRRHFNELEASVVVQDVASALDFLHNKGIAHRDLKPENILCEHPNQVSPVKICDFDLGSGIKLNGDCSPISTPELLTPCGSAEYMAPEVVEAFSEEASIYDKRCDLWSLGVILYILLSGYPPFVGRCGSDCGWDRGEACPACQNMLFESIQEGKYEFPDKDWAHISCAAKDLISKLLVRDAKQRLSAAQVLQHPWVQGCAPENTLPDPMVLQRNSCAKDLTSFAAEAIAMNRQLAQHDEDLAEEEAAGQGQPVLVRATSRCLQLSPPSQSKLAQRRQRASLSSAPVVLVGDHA
measured property: IC50 (nM)

INSERT INTO assay_data (compound, measured_on, unit_spec, quantitative_readout) VALUES
  ('CO[C@H]1CCCC[C@@H]1Oc1cc(F)ccc1Nc1ncnc2ccn(C)c12', 'Full-length human MNK2 (Homo sapiens, UniProt Q9HBH9, T379D)', 'nM', 794),
  ('C[C@@H](CF)Oc1cc(F)ccc1Nc1ncnc2ccn(C)c12', 'Full-length human MNK2 (Homo sapiens, UniProt Q9HBH9, T379D)', 'nM', 50.1),
  ('Cn1ccc2ncnc(Nc3ccc(F)cc3OC3CCC3)c21', 'Full-length human MNK2 (Homo sapiens, UniProt Q9HBH9, T379D)', 'nM', 79.4);

[A] CC(C)Oc1ccccc1Nc1ncnc2ccn(C)c12
[B] Cn1ccc2ncnc(Nc3ccc4[nH]ncc4c3)c21
Enquiry: Between the entries labeled A and B , whose measured IC50 is lower? Pick one and reply with its label.
Return: A
(A: 158 nM, B: 398 nM)

[I] CC(C)Oc1cc(Cl)ccc1Nc1ncnc2ccn(C)c12
[II] CO[C@H]1CCC[C@@H](Oc2cc(F)ccc2Nc2ncnc3ccn(C)c23)C1
Enquiry: Between the entries labeled I and II , whose measured IC50 is lower? Pick one and reply with its label.
Return: I
(I: 79.4 nM, II: 631 nM)

[A] CC(CF)Oc1cc(F)ccc1Nc1ncnc2ccn(C)c12 (racemic)
[B] Cn1ccc2ncnc(Nc3ccc(F)cc3O[C@H]3CCCC[C@@H]3O)c21
Enquiry: Recorded IC50 values differ for A and B ; which one is higher? Pick one and reply with its label.
Return: B

---

target: Full-length human MNK2 (Homo sapiens, UniProt Q9HBH9, T379D); assay: MNK2 biochemical IC50 assay (Caliper mobility shift)
measured property: IC50 (nM)

INSERT INTO results (smiles_input, measured_property, quantitative_readout) VALUES
  ('CN(C)CCCNC(=O)c1cc2ncnc(N3CCc4cc(F)ccc43)c2[nH]1', 'IC50', 12.6),
  ('Cn1ccc2ncnc(Nc3ccc(F)cc3OC3CCCC3)c21', 'IC50', 31.6);

[a] COc1ccc(Nc2ncnc3ccn(C)c23)c(OC(C)C)c1
[b] CC(C)Oc1cc(F)ccc1Nc1ncnc2cc(C(=O)NCCN3CCNCC3)n(C)c12
Enquiry: Recorded IC50 values differ for a and b ; which one is higher? Pick one and reply with its label.
Return: a
(a: 1260 nM, b: 50.1 nM)

---

target: Full-length human MNK2 (Homo sapiens, UniProt Q9HBH9, T379D); assay: MNK2 biochemical IC50 assay (Caliper mobility shift)
measured property: IC50 (µM)

INSERT INTO assay_data (smiles_input, quantitative_readout) VALUES
  ('C[C@H](CF)Oc1cc(F)ccc1Nc1ncnc2ccn(C)c12', 0.0398),
  ('Cn1ccc2ncnc(Nc3ccc(F)cc3OCC(F)F)c21', 0.158);

[P] CC(C)Oc1cc(F)ccc1Nc1ncnc2c(Cl)c(C(=O)NCCCN(C)C)n(C)c12
[Q] Cn1ccc2ncnc(Nc3ccc(F)cc3OC3CCOCC3)c21
[R] CC(C)Oc1cc(F)ccc1Nc1ncnc2ccn(C(C)C)c12
Enquiry: Sort by IC50, descending. Give your ranking as a list of the labels in the requested order.
Return: P, R, Q
(P: 1 µM, R: 0.501 µM, Q: 0.158 µM)

---

molecular target: Full-length human MNK2 (Homo sapiens, UniProt Q9HBH9, T379D); assay: MNK2 biochemical IC50 assay (Caliper mobility shift)
pIC50: −log10 of the molar value.
measured property: pIC50

Study these solved cases before continuing.
INSERT INTO results (compound, quantitative_readout) VALUES
  ('CC(C)Oc1nc(Cl)ccc1Nc1ncnc2ccn(C)c12 [Example 6]', 7.20),
  ('CC(C)Oc1c(F)cccc1Nc1ncnc2ccn(C)c12 [Example 33]', 7.30),
  ('CC(C)Oc1cc(F)ccc1Nc1ncnc2cc(C(=O)NCCCN(C)C)[nH]c12 [Example 44]', 7.20),
  ('CC(C)Oc1ncccc1Nc1ncnc2ccn(C)c12 [Example 29]', 7.00),
  ('CCOc1cc(F)ccc1Nc1ncnc2ccn(C)c12 [Example 30]', 6.90),
  ('CC(C)Oc1cc(F)ccc1Nc1ncnc2cc[nH]c12 [Example 45]', 7.10);

[1] CCn1ccc2ncnc(Nc3ccc(F)cc3OC(C)C)c21 [Example 1]
[2] CC(C)Oc1cc(F)ccc1Nc1ncnc2ccn(C)c12 [Example 27]
Enquiry: Recorded pIC50 values differ for 1 and 2 ; which one is higher? Pick one and reply with its label.
Return: 2

---

In this section we review reported IC50 values for a set of compounds.
biological target: Full-length human MNK1 (Homo sapiens, UniProt Q9BUB5, T385D); assay: MNK1 biochemical IC50 assay (Caliper mobility shift)
Enter your answer as a number in nM; do not include the unit.

INSERT INTO results (compound, measured_on, quantitative_readout) VALUES
  ('CC(C)Oc1cc(F)ccc1Nc1ncnc2cc(C(=O)NCC3CCNCC3)n(C)c12 [Example 41]', 'Full-length human MNK1 (Homo sapiens, UniProt Q9BUB5, T385D)', 39.8),
  ('Cn1ccc2ncnc(Nc3ccc(F)cc3O[C@@H]3CCOC3)c21 [Example 16]', 'Full-length human MNK1 (Homo sapiens, UniProt Q9BUB5, T385D)', 251),
  ('Cn1ccc2ncnc(Nc3ccc(F)cc3O[C@H]3CCCOC3)c21 [Example 19]', 'Full-length human MNK1 (Homo sapiens, UniProt Q9BUB5, T385D)', 501);

Now let's try a different one.
Enquiry: Any idea what its IC50 is? The compound is CC(C)Oc1cc(F)ccc1Nc1ncnc2cc(C(=O)NCCCN(C)C)n(C)c12 [Example 40]
Return: 50.1

---

In this section we review reported pIC50 values for a set of compounds.
molecular target: Full-length human MNK2 (Homo sapiens, UniProt Q9HBH9, T379D); assay: MNK2 biochemical IC50 assay (Caliper mobility shift)
Recall that pIC50 is obtained by taking minus log10 of the concentration measured in molar.

Study these solved cases before continuing.
INSERT INTO assay_data (compound, measured_property, quantitative_readout) VALUES
  ('Cn1ccc2ncnc(Nc3ccc(F)cc3O[C@@H]3CCCOC3)c21 [Example 18]', 'pIC50', 7.50),
  ('Cn1ccc2ncnc(Nc3ccc(F)cc3O[C@H]3CCOC3)c21 [Example 15]', 'pIC50', 6.80),
  ('Cn1ccc2ncnc(Nc3ccc(F)cc3O[C@H]3CCCOC3)c21 [Example 19]', 'pIC50', 6.90),
  ('CC(C)Oc1cc(F)ccc1Nc1ncnc2cc(C(=O)NCC3CCNCC3)n(C)c12 [Example 41]', 'pIC50', 7.40);

Now let's try a different one.
Enquiry: Any idea what its pIC50 is? The compound is Cn1ccc2ncnc(Nc3ccc(F)cc3OC(CF)CF)c21 [Example 11]
Return: 7.30
